Source: PubChem BioAssay AID743396

assay: compound fluorescence in GFP channel, mTEFS cells – imaging, mTEFS fibroblasts, cherry-pick, artefact control for X-chromosome reactivation project, dose response (AID 743396); details: mTEFS fibroblasts autofluorescence, GFP-channel imaging, 3 days; at 19.5 µM (top of the series); cells pretreated with 5-aza-dC;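 as to % fluorescent cells increase: raw share of Hoechst-counted cells scored GFP positive without control normalization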
PARAMETER MEASURED: % fluorescent cells increase (%)
Report the value in % with no unit label.

{"columns": ["MOLECULE", "PARAMETER MEASURED", "RESULT UNIT", "REPORTED RESULT"],
 "data": [
  ["CC(=O)c1cccc(-c2ccc3c(c2)C(C)(Cc2ccc(S(C)(=O)=O)cc2)C(=O)N3)c1 (centres undefined)", "% fluorescent cells increase", "%", 0],
  ["O=C(O)c1ccc(COc2ccccc2C=C2C(=O)c3ccccc3C2=O)cc1", "% fluorescent cells increase", "%", -0.004],
  ["Cc1ccccc1NC(=O)c1cn2c(nc3ccccc32)c(C#N)c1C", "% fluorescent cells increase", "%", 2.44],
  ["CCC(=O)OCCNc1cc(Sc2nc3ccccc3[nH]2)c2nonc2c1[N+](=O)[O-]", "% fluorescent cells increase", "%", -0.003],
  ["COc1cccc(NC(=O)N(C)C[C@@H]2Oc3cc(Br)ccc3S(=O)(=O)N([C@@H](C)CO)C[C@H]2C)c1", "% fluorescent cells increase", "%", 0.017]
]}

Q: GET /values?readout=% fluorescent cells increase&item= O=C(O)c1cccnc1C(=O)N1CCc2c([nH]c3ccccc23)C1C(F)(F)F (centres undefined)
Ans: 0.447

Q: Next: `N#CC(C#N)=C1C=CC=CN1/C(=C\c1ccco1)C(=O)c1ccc(Br)cc1`
Ans: 0

Q: Next: `CC(C)N1CCc2c(sc(NC(=O)c3cc4cc([N+](=O)[O-])ccc4s3)c2C(N)=O)C1`
Ans: 0

Q: Next: Cc1ccc(C(=O)NCc2ccccn2)cc1NC1=NC2CS(=O)(=O)CC2S1 (centres undefined)
Ans: 0.061

###

# % fluorescent cells increase annotations
assay: compound fluorescence in GFP channel, mTEFS cells – imaging, mTEFS fibroblasts, cherry-pick, artefact control for X-chromosome reactivation project, dose response (AID 743396); conditions: mTEFS fibroblasts autofluorescence, GFP-channel imaging, 3 days; at 19.5 µM (top of the series); cells pretreated with 5-aza-dC
Report the value in % with no unit label.

Please review the entries below; each comes with its answer.
{"columns": ["MOLECULE", "RESULT UNIT", "REPORTED RESULT"],
 "data": [
  ["C[C@@H]1CCCCO[C@H](CN(C)Cc2ccc3c(c2)OCO3)[C@@H](C)CN([C@H](C)CO)C(=O)c2cc(NS(=O)(=O)c3ccc(F)cc3)ccc2O1", "%", 0.175],
  ["COc1ccccc1-c1ccc(/C=N/O)o1", "%", 0],
  ["CC(C)(C)N(Cc1ccccc1)C(=O)COC(=O)c1ccc(N2CCCC2=O)cc1", "%", -0.007],
  ["COCCN(C(=S)Nc1cccc(C)c1)C(C)c1cccnc1 (stereo not given)", "%", -0.004],
  ["OC[C@@H]1Nc2ccc(C#Cc3ccccc3)cc2[C@H]2[C@@H]1CCN2Cc1nccs1", "%", 0.018]
]}

Q: GET /values?readout=% fluorescent cells increase&item= `Cc1ccc2[nH]c(C(=O)O)c(NC(=O)[C@@H]3C[C@@H]3c3ccccc3)c2c1`
Ans: 0.266

Q: Next: `COc1ccccc1-c1cc(C(=O)N2CCCc3ccccc32)no1`
Ans: 0.006

Q: Next: COc1cccc(-c2ccc(C3[C@@H]4CN(C(=O)C5CCCCC5)C[C@H]3N4)cc2)c1 (stereo not given in full)
Ans: 0

Q: Next: `COc1ccc(CCn2c(C)cc(C(=O)CN3C(=O)C(=O)N(Cc4ccco4)C3=O)c2C)cc1`
Ans: 0

Q: Next: `Cc1[nH]c2ccccc2c1/C=N/Nc1nc2ccccc2[nH]1`
Ans: 0

###

tested on: mTEFS fibroblasts autofluorescence, GFP-channel imaging, 3 days; experiment: compound fluorescence in GFP channel, mTEFS cells – imaging, mTEFS fibroblasts, cherry-pick, artefact control for X-chromosome reactivation project, dose response (AID 743396); conditions: cells pretreated with 5-aza-dC
Calls of active or inactive are those of the source.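 Rule for the calls: active = fitted curve reaches a 40% rise in fluorescent cells at or below the top valid dose; inactive = opposite-direction effect, or the rest.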
Outcomes you can answer with include only these: t = active, f = inactive

Answered cases to consult:
{"columns": ["COMPOUND", "MEASUREMENT TARGET", "ASSIGNED CATEGORY"],
 "data": [
  ["COc1cccc(C(=O)c2c(-c3ccccc3)ncc3cc(OC)c(OC)cc23)c1", "mTEFS fibroblasts autofluorescence, GFP-channel imaging, 3 days", "t"],
  ["Cn1cc(C2=C(c3ccc(Cl)cc3Cl)C(=O)NC2=O)c2ccccc21", "mTEFS fibroblasts autofluorescence, GFP-channel imaging, 3 days", "t"],
  ["C/C(=N\\Nc1ncnc2sc(C)c(C)c12)c1ccccn1", "mTEFS fibroblasts autofluorescence, GFP-channel imaging, 3 days", "t"],
  ["O=C1c2ccccc2C(=O)C1c1ccccc1", "mTEFS fibroblasts autofluorescence, GFP-channel imaging, 3 days", "f"]
]}

Q: Could you please tell me the result logged for `CC(=O)[C@@]1(O)Cc2c(O)c3c(c(O)c2[C@H](O[C@H]2C[C@H](N)[C@H](O)[C@H](C)O2)C1)C(=O)c1ccccc1C3=O` in this assay?
Ans: f

Q: Next: CC(NC(=O)/C(C#N)=C/c1ccc([N+](=O)[O-])o1)c1ccccc1 (configuration not stated)
Ans: f

Q: Next: `Cc1cccc(-c2cccc3[nH]c4c(c23)CCN2C(=O)[C@H]3[C@H](C)ON(C)[C@H]3C[C@@H]42)c1`
Ans: t

###

test: compound fluorescence in GFP channel, mTEFS cells – imaging, mTEFS fibroblasts, cherry-pick, artefact control for X-chromosome reactivation project, dose response (AID 743396); conditions: mTEFS fibroblasts autofluorescence, GFP-channel imaging, 3 days; at 19.5 µM (top of the series); cells pretreated with 5-aza-dC;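 as to % fluorescent cells increase: raw share of Hoechst-counted cells scored GFP positive without control normalization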
PARAMETER MEASURED: % fluorescent cells increase (%)
Report the value in % with no unit label.

{"columns": ["COMPOUND", "% fluorescent cells increase, %"],
 "data": [
  ["Oc1c(C(c2ccccc2Cl)N2CCCC2)ccc2cccnc12 (stereo unspecified)", 0]
]}

Q: GET /values?readout=% fluorescent cells increase&item= COc1ccc(C2=NOC3(CC(=O)N(c4ccc(F)cc4)C3=O)C2)cc1 (stereo unspecified)
Ans: 0.016

Q: Next: `Nc1c(-c2ccccc2)c(CN2CCOCC2)nn1-c1ccc(C(=O)O)cc1`
Ans: 0

###

# % fluorescent cells increase annotations
assay: compound fluorescence in GFP channel, mTEFS cells – imaging, mTEFS fibroblasts, cherry-pick, artefact control for X-chromosome reactivation project, dose response (AID 743396); details: mTEFS fibroblasts autofluorescence, GFP-channel imaging, 3 days; at 19.5 µM (top of the series); cells pretreated with 5-aza-dC;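 as to % fluorescent cells increase: raw share of Hoechst-counted cells scored GFP positive without control normalization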
Report the value in % with no unit label.

{"columns": ["MOLECULE", "REPORTED RESULT"],
 "data": [
  ["COc1cc(NC(C)CCc2ccccc2)cc(OC)c1OC (centres undefined)", 0],
  ["COc1ccc(NC(=O)Nc2ccc3c(c2)CC(=O)N([C@H](C)CO)C[C@H](C)[C@@H](CN(C)S(=O)(=O)c2ccc(F)cc2)O3)cc1", 2.89],
  ["COc1ccc2c3c([nH]c2c1)[C@@H](CO)N(Cc1cc(F)ccc1F)CC31CCN(C(C)=O)CC1", 0]
]}

Now for another entry.
Q: GET /values?readout=% fluorescent cells increase&item= `CN(CC(=O)Nc1ccc(Cl)c(Cl)c1)CC(=O)Nc1ccc2c(c1)OCO2`
Ans: 0

###

# % fluorescent cells increase annotations
test: compound fluorescence in GFP channel, mTEFS cells – imaging, mTEFS fibroblasts, cherry-pick, artefact control for X-chromosome reactivation project, dose response (AID 743396); settings: mTEFS fibroblasts autofluorescence, GFP-channel imaging, 3 days; at 19.5 µM (top of the series); cells pretreated with 5-aza-dC;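 as to % fluorescent cells increase: raw share of Hoechst-counted cells scored GFP positive without control normalization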
Report the value in % with no unit label.

{"columns": ["SUBSTANCE SMILES", "% fluorescent cells increase (%)"],
 "data": [
  ["COc1ccc2c3c([nH]c2c1)[C@@H](CO)N(Cc1ccccc1F)CC31CN(C(=O)C2CCOCC2)C1", -0.038],
  ["NS(=O)(=O)c1cccc(-n2cnnn2)c1", 0],
  ["Cc1ccc(S(=O)(=O)N2CCN(C(=O)COC(=O)c3ccccc3OC(F)F)CC2)c(C)c1", 0],
  ["Cc1nnc(SCc2cc(=O)oc3ccc4ccccc4c23)n1Cc1ccccc1", 0],
  ["CO[C@H]1CN(C)C(=O)c2ccc(NC(=O)C3CCCCC3)cc2OC[C@H](C)NC[C@@H]1C", 0.009]
]}

Now for another entry.
Q: GET /values?readout=% fluorescent cells increase&item= `Cc1ccc(NC(=O)c2cc(N3C(=O)C=CC3=O)ccc2N2CCOCC2)cc1Cl`
Ans: -0.004
